# reported pIC50; entries follow
target: recombinant human NaV1.8 stably transfected HEK cells (Homo sapiens, UniProt Q9Y5Y9); construct: expressed in transfected cells; host or cells: HEK cells, stably transfected; test: Compound profiling on NaV1.8, human NaV1.8 cell line, SyncroPatch384PE automated patch clamp assay (Example 102, first set of compounds, Table 16); assay type: cell-based; details: resting state block (P1 measurement), human NaV1.8 HEK cells, Table 16 (first set of compounds), read-out: P1IC50
Sequence (Q9Y5Y9 whole entry): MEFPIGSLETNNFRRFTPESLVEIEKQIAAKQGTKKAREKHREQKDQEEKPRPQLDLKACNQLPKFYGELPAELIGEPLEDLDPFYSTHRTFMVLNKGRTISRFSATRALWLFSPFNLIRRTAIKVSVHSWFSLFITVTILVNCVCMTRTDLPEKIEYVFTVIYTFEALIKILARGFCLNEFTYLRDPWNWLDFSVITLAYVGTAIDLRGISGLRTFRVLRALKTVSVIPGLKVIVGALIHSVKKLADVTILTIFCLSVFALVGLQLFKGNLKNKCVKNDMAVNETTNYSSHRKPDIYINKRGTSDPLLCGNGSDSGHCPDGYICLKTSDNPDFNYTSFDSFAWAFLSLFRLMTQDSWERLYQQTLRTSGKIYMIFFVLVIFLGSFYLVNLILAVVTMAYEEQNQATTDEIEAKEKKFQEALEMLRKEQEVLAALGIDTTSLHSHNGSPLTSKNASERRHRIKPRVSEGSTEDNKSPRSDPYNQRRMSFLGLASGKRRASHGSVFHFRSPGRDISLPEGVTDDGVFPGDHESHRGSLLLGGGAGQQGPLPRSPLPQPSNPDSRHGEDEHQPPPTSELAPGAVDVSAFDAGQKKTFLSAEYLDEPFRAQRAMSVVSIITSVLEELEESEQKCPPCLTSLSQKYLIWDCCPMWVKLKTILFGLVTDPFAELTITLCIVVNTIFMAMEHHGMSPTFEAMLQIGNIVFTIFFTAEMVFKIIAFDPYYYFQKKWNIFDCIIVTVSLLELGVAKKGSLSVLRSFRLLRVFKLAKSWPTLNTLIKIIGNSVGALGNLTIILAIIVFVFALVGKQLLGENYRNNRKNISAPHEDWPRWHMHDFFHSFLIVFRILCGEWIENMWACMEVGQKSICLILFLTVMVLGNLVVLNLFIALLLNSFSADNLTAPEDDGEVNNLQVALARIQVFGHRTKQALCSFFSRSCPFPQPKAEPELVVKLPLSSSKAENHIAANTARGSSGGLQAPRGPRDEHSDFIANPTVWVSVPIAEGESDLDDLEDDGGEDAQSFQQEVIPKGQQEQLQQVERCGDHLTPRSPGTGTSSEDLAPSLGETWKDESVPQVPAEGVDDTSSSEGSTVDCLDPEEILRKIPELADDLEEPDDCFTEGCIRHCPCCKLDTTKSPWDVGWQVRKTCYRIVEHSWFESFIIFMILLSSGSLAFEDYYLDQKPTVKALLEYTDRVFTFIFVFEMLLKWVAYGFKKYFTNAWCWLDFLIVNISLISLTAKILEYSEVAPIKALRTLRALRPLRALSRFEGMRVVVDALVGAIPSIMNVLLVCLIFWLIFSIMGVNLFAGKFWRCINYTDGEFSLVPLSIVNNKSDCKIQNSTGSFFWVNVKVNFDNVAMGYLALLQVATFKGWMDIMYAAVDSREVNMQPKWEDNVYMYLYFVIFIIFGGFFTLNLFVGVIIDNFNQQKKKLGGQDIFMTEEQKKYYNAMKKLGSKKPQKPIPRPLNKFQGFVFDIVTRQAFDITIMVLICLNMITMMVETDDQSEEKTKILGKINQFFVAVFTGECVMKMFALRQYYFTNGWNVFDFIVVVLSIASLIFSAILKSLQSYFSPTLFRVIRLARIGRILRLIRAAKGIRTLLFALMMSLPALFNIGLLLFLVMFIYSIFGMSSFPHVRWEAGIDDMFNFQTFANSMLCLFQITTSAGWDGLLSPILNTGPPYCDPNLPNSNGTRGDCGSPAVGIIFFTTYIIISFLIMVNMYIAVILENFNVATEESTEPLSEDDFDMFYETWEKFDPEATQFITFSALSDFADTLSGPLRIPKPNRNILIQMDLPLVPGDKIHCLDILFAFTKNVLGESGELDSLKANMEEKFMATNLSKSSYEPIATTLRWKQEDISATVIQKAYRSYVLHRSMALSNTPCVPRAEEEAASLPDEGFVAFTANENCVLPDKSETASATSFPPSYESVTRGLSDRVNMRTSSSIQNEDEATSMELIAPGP
pIC50: −log10 of the molar value.

molecule: COc1cc(C#N)ccc1Oc1nnc(-c2ccc(C)cc2)c(C)c1C(=O)Nc1cccc([S@@](C)(=N)=O)c1 [Compound 1530]
pIC50: 6.70 to 7.40
//
molecule: COc1cc(C#N)ccc1Oc1nnc(C(F)(F)F)c(C)c1C(=O)Nc1cccc(C(=O)NCC2(F)CC2)c1 [Compound 1440]
pIC50: 6.30 to 6.70
//
molecule: COc1c(Oc2nnc(C(F)(F)F)c(C)c2C(=O)Nc2ccc[n+]([O-])c2)ccc(F)c1F [Compound 1476]
pIC50: ≥ 7.70
//
molecule: Cc1cc(F)ccc1Oc1nnc(C(F)(F)F)c(C)c1C(=O)Nc1cc(C(N)=O)cc(S(C)(=O)=O)c1 [Compound 1407]
pIC50: 6.30 to 6.70
//
molecule: Cc1cc(C#N)ccc1Oc1nnc(C(F)(F)F)c(C)c1C(=O)Nc1cccc(S(C)(=O)=O)c1 [Compound 1465]
pIC50: ≥ 7.70
//
molecule: Cc1c(C(F)(F)F)nnc(Oc2ccc(OC(F)(F)F)c(F)c2F)c1C(=O)Nc1cccc(S(C)(=O)=O)c1 [Compound 1419]
pIC50: ≥ 7.70
//
molecule: Cc1c(C(F)(F)F)nnc(Oc2ccc(OC(F)F)c(F)c2F)c1C(=O)Nc1cccc(S(C)(=O)=O)c1 [Compound 1422]
pIC50: ≥ 7.70
//
molecule: CC(C)Oc1ccc(Oc2ncc(C(F)(F)F)cc2C(=O)Nc2cccc(S(C)(=N)=O)c2)cc1F (centres unmarked) [Compound 1647]
pIC50: ≥ 7.70
//
molecule: COc1cc(C#N)ccc1Oc1nnc(C(F)(F)F)c(C)c1C(=O)Nc1cccc([S@@](C)(=N)=O)c1 (single isomer, unassigned) [Compound 1479]
pIC50: ≥ 7.70
//
molecule: COc1ncc(C#N)cc1Oc1ncc(C(F)(F)F)cc1C(=O)Nc1cccc(S(C)(=N)=O)c1 (centres unmarked) [Compound 1623]
pIC50: 6.30 to 6.70
//
molecule: Cn1cc(Oc2ncc(C(F)(F)F)cc2C(=O)Nc2cccc(S(C)(=O)=O)c2)cn1 [Compound 1610]
pIC50: 6.30 to 6.70
//
molecule: N#CC1CC(Oc2ncc(C(F)(F)F)cc2C(=O)Nc2ccc(C(N)=O)cc2)C1 (mixture of isomers) [Compound 1671]
pIC50: 6.30 to 6.70
//
molecule: COc1c(Oc2nnc(C(F)(F)F)c(C)c2C(=O)Nc2cccc(S(C)(=N)=O)c2)ccc(Cl)c1F (centres unmarked) [Compound 1489]
pIC50: ≥ 7.70
//
molecule: Cc1cc(F)ccc1Oc1ncc(C#N)cc1C(=O)Nc1cccc(S(C)(=N)=O)c1 (centres unmarked) [Compound 1578]
pIC50: 6.30 to 6.70
